experiment_description: Cytotoxicity against human BEAS-2B cells assessed as cell growth inhibition at 4.5 to 10 nM incubated for 48 hrs by MTT assay relative to control
Assay type: toxicity, cell-based
assay_context: dose 4.5-10 nM, read-out: Imax
property_label: Emax at 48 h

* CC(C)[C@]12O[C@H]1[C@@H]1O[C@@]13[C@@]1(C)CCC4=C(COC4=O)[C@@H]1C[C@@H]1O[C@@]13C2=O [TRIPTONIDE] | ~40%

====

experiment_description: Toxicity in zebrafish embryo assessed as death rate at 0.5 uM pretreated with compound followed by replacement of growth liquid by microscopy (reference value: 0.00 %)
Design: species or system Danio rerio
assay_context: in vivo, read-out: Activity
property_label: mortality at 24 h, 0.5 µM (%)

- CC(C)[C@]12O[C@H]1[C@@H]1O[C@@]13[C@@]1(C)CCC4=C(COC4=O)[C@@H]1C[C@@H]1O[C@@]13C2=O [TRIPTONIDE]: 2.22
- CC(C)[C@]12O[C@H]1[C@@H]1O[C@]13[C@]1(O[C@H]1C[C@H]1C4=C(CC[C@@]13C)C(=O)OC4)[C@@H]2OC(=O)CCCCCCCC[n+]1ccc(/C=C/c2c[nH]c3ccccc23)cc1.[Br-]: 2.22
